FYI, the data here is from paper PMC10397247.

- assayed-system: T1, 4H510-AA
- T1 chain: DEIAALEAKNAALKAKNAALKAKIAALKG
- test: two-hybrid library CCmax;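 further: natural log of median RNA to DNA barcode read ratio; higher means stronger binding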
- condition-parameters: mean of both orientations
readout-name: interaction score

Answered cases to consult:
- binder: "DEIAALEAKNAALEAEIAALEAKIAALKG [4H390-AA]"
  interaction score: 1.57
- binder: "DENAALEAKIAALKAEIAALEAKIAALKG [4H1350-AA]"
  interaction score: -1.17
- binder: "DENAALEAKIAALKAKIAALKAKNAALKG [4H1392-AA]"
  interaction score: -1.62

1. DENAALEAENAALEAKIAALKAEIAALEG [4H1193-AA]
2. DKIAALKAKNAALEAKIAALKAEIAALEG [4H2985-AA]
Exercise: Given the listed records, identify the one among 1 and 2 with higher interaction score. Please indicate the selected item by its label.
Solution: 1

I. DKIAALKAEIAALKAENAALEAKIAALKG [4H2646-AA]
II. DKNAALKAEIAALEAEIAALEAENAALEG [4H3587-AA]
Exercise: Consider entries I and II . Which has the numerically lower interaction score? Please indicate the selected item by its label.
Solution: II
